Cited source for all entries: PubChem BioAssay (NCATS)

// reported max response for each item listed
Assay: qHTS Assay for Identifying Gametocytocidal Compounds (AID 743244);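 further: on the % scale 0 is the no-effect control and ±100 the full control effect; actives lower the fluorescent signal which means gametocytes are killed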
Conditions: P. falciparum 3D7 stage III-V gametocytes, alamarBlue, 72 h; stronger effect = lower value
Results filed as inconclusive are left out.
Numeric only. Scale: %

CC[N+](CC)(CC(=O)Nc1c(C)cccc1C)Cc1ccccc1 ... 7.32
CCN[C@H]1CN(CCCOC)S(=O)(=O)c2sc(S(N)(=O)=O)cc21 ... 21.3
O=C1c2ccccc2S(=O)(=O)N1CCCCN1CCN(c2ncccn2)CC1 ... -4.4
CN(C/C=C/C#CC(C)(C)C)Cc1cccc2ccccc12 ... -1.43
Cc1c(C)c2c(c(C)c1OC(=O)c1cccnc1)CC[C@@](C)(CCC[C@H](C)CCC[C@H](C)CCCC(C)C)O2 ... 6.89

Request: GET /values?readout=max response&item= O=C(Cn1ccnc1[N+](=O)[O-])NCc1ccccc1
Result: -2.89

Request: Let us now turn to OC(CCN1CCCC1)(c1ccccc1)C1CCCCC1 (stereo unspecified)
Result: 3.62

Request: Let us now turn to COc1ccc(NS(=O)(=O)c2ccc(N)cc2)nn1
Result: 10.4

Request: Let us now turn to C/C=C1\[C@H]2C=C(C)C[C@]1(N)c1ccc(=O)[nH]c1C2
Result: 2.62

Request: Let us now turn to CCCCCCCC(=O)OCC(COC(=O)CCCCCCC)OC(=O)CCCCCCC
Result: 1.43

Request: Let us now turn to CC(CN(C)C)C(C)(O)Cc1ccc(Cl)cc1 (stereo unspecified)
Result: -5.22

###

Test system: HEK293
Experiment: Cytotoxic Profiling of Annotated Libraries Using Quantitative High-Throughput Screening (AID 1296008); further: on the % scale 0 is the no-effect control and ±100 the full control effect; nearly all actives have a fitted effect of over 60% in size
Conditions: Five cell lines viability, CellTiter-Glo ATP luminescence, 48-72 h; stronger effect = lower value
Inconclusive results are not listed.
MEASURED_QUANTITY: max response (%)
Numeric only. Scale: %

Answered cases to consult:
NS(=O)(=O)c1cc(C2(O)NC(=O)c3ccccc32)ccc1Cl (stereo unspecified) ... -4.45
O=c1[nH]c2cc(C(F)(F)F)c(N3CCOCC3)cc2n(CP(=O)(O)O)c1=O ... 2.88
COc1ccccc1OCC(O)CO (stereo unspecified) ... -2.29
C1CCN2C[C@@H]3C[C@@H](CN4CCCC[C@@H]34)[C@H]2C1 ... -9.35
OC(CCN1CCCC1)(c1ccccc1)C1CCCCC1 (stereo unspecified) ... -13.4

Request: GET /values?readout=max response&item= CC(O)CCCCn1c(=O)c2c(ncn2C)n(C)c1=O (stereo unspecified)
Result: 0.321

Request: Let us now turn to O=C(O)c1ccc[n+]([O-])c1
Result: -0.144

Request: Let us now turn to C[n+]1ccccc1/C=N/O
Result: -5.72

Request: Let us now turn to C=CCOc1ccccc1OCC(O)CNC(C)C (stereo unspecified)
Result: 3.92

Request: Let us now turn to O=C(O)CNC(=O)c1ccccc1I
Result: -1.69

Request: Let us now turn to Cc1ccc(S(=O)(=O)NC(=O)NC2CCCCCCC2)cc1
Result: 4.09

###

Biological target: Cytochrome P450 2D6 (Homo sapiens)
Experiment: Cytochrome P450 family 2 subfamily D member 6 (CYP2D6) small molecule antagonists: luciferase biochemical (cell-free) qHTS assay (AID 1645840); further: nearly all actives have a fitted effect of over 55% in size
Conditions: P450-Glo CYP2D6 enzyme, luciferin luminescence, 1 h; series mostly up to 57.4 µM
Inconclusive results are not listed. Active and inactive are the calls of the source. Calls follow the shape of the dose curve; as a rule, active = well fitted inhibition curve with a large enough effect in the repeat runs; inconclusive = weak or mixed curves; inactive = flat fitted curve, though single readings scatter.
The categories you may choose from are active, inactive

O=C(CN1CCNCC1)NC1CCCCC1 ... inactive
CC(=O)Oc1cccc(C)c1 ... inactive
CC(C(=O)O)c1ccc2c(c1)Cc1cccnc1O2 (configuration not stated) ... inactive
O=C(c1ccccc1)C(O)c1ccccc1 (configuration not stated) ... inactive
CC(=O)Nc1ccc(C(=O)O)cc1 ... inactive
O=C(OOC(=O)c1ccccc1)c1ccccc1 ... inactive
O=C(NCN1CCOCC1)c1cnccn1 ... inactive
CC(=O)N[C@H]1[C@H]([C@H](O)[C@H](O)CO)OC(C(=O)O)=C[C@@H]1N=C(N)N ... inactive

Request: For C/C=C1\[C@H]2C=C(C)C[C@]1(N)c1ccc(=O)[nH]c1C2 , which call appears in the assay record?
Result: inactive

Request: Let us now turn to Cc1ccsc1C(=CCCN1CCC[C@@H](C(=O)O)C1)c1sccc1C
Result: inactive

Request: Let us now turn to C=CCN1C[C@H](C(=O)N(CCCN(C)C)C(=O)NCC)C[C@@H]2c3cccc4[nH]cc(c34)C[C@H]21
Result: active

Request: Let us now turn to O=C(Cn1ccnc1[N+](=O)[O-])NCc1ccccc1
Result: inactive
